These entries and their values trace back to the supplement of paper PMC11451515.

System: SEM cells
method-notes: cell viability relative to DMSO control; higher = less cytotoxic
test-context: RPMI 5 mM glucose + 10% FBS; 48 h; 15.4 µM
observable: cell viability (%)
Lab book: enter the figure in %, no units written.

Use the examples below as a reference point.
- molecule: "COc1ccc(Cn2ccc3ccc(C(=O)NO)cc32)cc1"
  unit-abbrev: "%"
  cell viability: 109
- molecule: "CNC(=O)c1c(F)cccc1Nc1nc(Nc2cc3c(cc2OC)CCN3C(=O)CN(C)C)nc2[nH]ccc12"
  unit-abbrev: "%"
  cell viability: 1.01
- molecule: "CCCn1c(=O)c2[nH]c(-c3cnn(Cc4cccc(C(F)(F)F)c4)c3)nc2n(CC)c1=O"
  unit-abbrev: "%"
  cell viability: 109
- molecule: "CC(C)(C)C1=NC2=C([NH]1)C3=CC=C(F)C=C3C4=C2\\C=C/NC4=O"
  unit-abbrev: "%"
  cell viability: 18.1
- molecule: "O=C(c1ccc(F)cc1)C1CCN(CCn2c(=O)[nH]c3ccccc3c2=O)CC1"
  unit-abbrev: "%"
  cell viability: 125
- molecule: "CN(C)c1nc(N(C)C)nc(N(C)C)n1"
  unit-abbrev: "%"
  cell viability: 104
- molecule: "COc1ccc(CCC(=O)Nc2nc3ccc(Cl)cc3s2)cc1OC"
  unit-abbrev: "%"
  cell viability: 104
- molecule: "CC(C)c1ccc2oc3nc(N)c(C(=O)O)cc3c(=O)c2c1"
  unit-abbrev: "%"
  cell viability: 140

Field request: cell viability | item: CN(C)[C@H]\1[C@@H]2[C@@H](O)[C@@H]\3C(=C)C4=C(C(=CC=C4)O)C(=O)C3=C(\O)[C@@]2(O)C(=O)\C(=C1O)C(N)=O
93.9

Field request: cell viability | item: CO[C@@H]1[C@H](N(C)C(=O)c2ccccc2)C[C@H]2O[C@]1(C)n1c3ccccc3c3c4c(c5c6ccccc6n2c5c31)C(=O)NC4
6.27

Field request: cell viability | item: O=P(O)(O)C(O)(Cc1cccnc1)P(=O)(O)[O][Na] (stereo unspecified)
100

Field request: cell viability | item: NC12CC3CC(CC(C3)C1)C2
110

Field request: cell viability | item: CCOC(=O)c1ccc(C#Cc2ccc3c(c2)C(C)(C)CCS3)nc1
108

Field request: cell viability | item: N/C(=N\C(=O)c1nc(Cl)c(N)nc1N)NCc1ccccc1
62.3

Field request: cell viability | item: O=C(NC1CC1)c1cccc(-c2ccc3c(NC(=O)C4CC4)n[nH]c3c2)c1
51.3

Field request: cell viability | item: CCC(CC)[C@H](NC(C)=O)[C@@H]1[C@H](O)[C@@H](C(=O)O)C[C@H]1NC(=N)N
77.7
